Target: HCV NS3/4A protease complex, BMS strain (UniProt P27958, species not given/STRAIN_BMS)
Construct: other: NS3/4A BMS strain; activity range class; numeric values, unit not given; said of H77 and J4L6S; fused on or other part: A three-lysine solubilising tail at the C-terminus of NS4A; A His tag is implied by the pET21b vector and Ni-NTA purification; Both are printed for the H77 and J4L6S constructs and apply to BMS by inference
Sequence (P27958 1027-1657, change not shown, one chain of several): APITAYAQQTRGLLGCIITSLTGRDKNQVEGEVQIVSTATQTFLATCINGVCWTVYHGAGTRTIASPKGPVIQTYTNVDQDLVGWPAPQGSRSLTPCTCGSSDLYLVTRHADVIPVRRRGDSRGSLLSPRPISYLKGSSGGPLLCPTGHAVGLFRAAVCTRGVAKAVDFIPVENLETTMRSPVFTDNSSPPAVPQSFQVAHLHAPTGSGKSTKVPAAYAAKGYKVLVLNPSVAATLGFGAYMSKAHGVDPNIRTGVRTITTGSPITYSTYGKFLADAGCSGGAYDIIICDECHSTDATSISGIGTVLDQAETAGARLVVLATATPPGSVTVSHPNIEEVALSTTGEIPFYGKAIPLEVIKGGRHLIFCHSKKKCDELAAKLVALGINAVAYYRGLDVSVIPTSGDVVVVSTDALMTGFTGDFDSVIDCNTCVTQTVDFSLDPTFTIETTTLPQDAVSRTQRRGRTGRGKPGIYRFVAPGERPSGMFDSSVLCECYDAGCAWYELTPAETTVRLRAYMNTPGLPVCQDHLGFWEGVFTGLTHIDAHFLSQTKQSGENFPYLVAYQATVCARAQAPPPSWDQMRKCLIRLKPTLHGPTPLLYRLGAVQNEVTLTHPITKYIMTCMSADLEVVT
Assay: FRET peptide assay to monitor HCV NS3/4A proteolytic activity (BMS strain)
Format: biochemical, Hepatitis C virus (genotype 1a)
Settings: read-out: HCV Protease (IC50); NS3/4A BMS strain; activity range class

[
  {
    "Molecule": "C=C[C@@H]1C[C@]1(NC(=O)[C@@H]1C[C@@H](Oc2ncc(OC)c3ccc(Cl)cc23)CN1C(=O)[C@H](Nc1ccc(S(=O)(=O)N(C)C)cc1)C(C)(C)C)C(=O)NS(=O)(=O)C1CC1 [224 second isomer]",
    "IC50": "> 0.2 µM"
  },
  {
    "Molecule": "C=C[C@@H]1C[C@]1(NC(=O)[C@@H]1C[C@@H](Oc2nccc3cc(OC)ccc23)CN1C(=O)[C@H](Nc1cc(C)cc(C)n1)C(C)(C)C)C(=O)NS(=O)(=O)C1CC1 [14 second isomer]",
    "IC50": "> 0.2 µM"
  },
  {
    "Molecule": "C=C[C@@H]1C[C@]1(NC(=O)[C@@H]1C[C@@H](Oc2nc(N(C)C)cc3c(OC)cccc23)CN1C(=O)C(Nc1cccc(C)n1)C(C)(C)C)C(=O)NS(=O)(=O)C1CC1 (single isomer, unassigned) [Compound 38A]",
    "IC50": "0.0006 to 0.02 µM"
  },
  {
    "Molecule": "C=C[C@@H]1C[C@]1(NC(=O)[C@@H]1C[C@@H](Oc2ncc(OC)c3ccc(Cl)cc23)CN1C(=O)C(C)Nc1nsnc1OC)C(=O)NS(=O)(=O)C1CC1 (some centres unmarked)",
    "IC50": "0.02 to 0.2 µM"
  },
  {
    "Molecule": "C=C[C@@H]1C[C@]1(NC(=O)[C@@H]1C[C@@H](Oc2ncc(OC)c3ccc(Cl)cc23)CN1C(=O)[C@@H](Nc1ccc(C(N)=O)cc1)C(C)(C)C)C(=O)NS(=O)(=O)C1CC1 [226 first isomer]",
    "IC50": "0.0006 to 0.02 µM"
  }
]

Cited source for all entries: patent US7772180B2
